target: OR2W1 (Homo sapiens); conditions: stereoisomer not certain
Assign a class; possible classes are 1 = active, 0 = inactive

Sample answers from the record:
CCC(C)COC(C)=O (stereo not given) = 0
CCCCC(C)CCC(=O)O (stereo not given) = 0
CCC=CCCC=O = 1
CCCSSSCCC = 1

Test call for this molecule, please: CCCCCC1CCC(=O)O1 (stereo not given)
1

* * *

molecular target: UniProt Q8VGQ3; conditions: stereoisomer not certain
Sequence (Q8VGQ3 as listed by the source): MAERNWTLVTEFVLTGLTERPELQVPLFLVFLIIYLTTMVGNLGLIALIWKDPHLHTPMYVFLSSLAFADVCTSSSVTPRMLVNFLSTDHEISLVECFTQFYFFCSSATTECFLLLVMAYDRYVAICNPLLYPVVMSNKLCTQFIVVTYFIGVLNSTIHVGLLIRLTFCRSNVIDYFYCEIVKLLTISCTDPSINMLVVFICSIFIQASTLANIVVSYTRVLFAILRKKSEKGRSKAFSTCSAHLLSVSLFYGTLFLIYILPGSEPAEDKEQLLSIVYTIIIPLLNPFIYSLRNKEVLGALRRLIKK
Assign a class; possible classes are active, inactive

Sample answers from the record:
O=C1Cc2ccccc2O1 = inactive
O=C(c1ccccc1)c1ccccc1 = inactive
CCCCOC=O = inactive
c1ccccc1 = inactive
CCCCCCCC(C)=O = inactive
CCC(=O)C(=O)CC = inactive
CC12CCC(CC1=O)C2(C)C (configuration not stated) = inactive
CCCCCCOC(C)=O = inactive
CCCC(=O)C(C)=O = inactive
CCCCCCC(C)=O = inactive

Test call for this compound, please: CCCCCCCCC(=O)O
inactive

Test call for this compound, please: CCOC(=O)C(C)C
inactive
